molecular target: epidermal growth factor receptor tyrosine kinase (EGFR-TK) (Homo sapiens, UniProt P00533); construct: commercial purified EGFR (Sigma-Aldrich), called both purified Epidermal Growth Factor Receptor and purified recombinant EGFR tyrosine kinase; experiment: ELISA kinase assay, poly(Glu,Tyr) phosphorylation, anti-phosphotyrosine antibody, […] nm; assay type: biochemical
Sequence (P00533 25-1210): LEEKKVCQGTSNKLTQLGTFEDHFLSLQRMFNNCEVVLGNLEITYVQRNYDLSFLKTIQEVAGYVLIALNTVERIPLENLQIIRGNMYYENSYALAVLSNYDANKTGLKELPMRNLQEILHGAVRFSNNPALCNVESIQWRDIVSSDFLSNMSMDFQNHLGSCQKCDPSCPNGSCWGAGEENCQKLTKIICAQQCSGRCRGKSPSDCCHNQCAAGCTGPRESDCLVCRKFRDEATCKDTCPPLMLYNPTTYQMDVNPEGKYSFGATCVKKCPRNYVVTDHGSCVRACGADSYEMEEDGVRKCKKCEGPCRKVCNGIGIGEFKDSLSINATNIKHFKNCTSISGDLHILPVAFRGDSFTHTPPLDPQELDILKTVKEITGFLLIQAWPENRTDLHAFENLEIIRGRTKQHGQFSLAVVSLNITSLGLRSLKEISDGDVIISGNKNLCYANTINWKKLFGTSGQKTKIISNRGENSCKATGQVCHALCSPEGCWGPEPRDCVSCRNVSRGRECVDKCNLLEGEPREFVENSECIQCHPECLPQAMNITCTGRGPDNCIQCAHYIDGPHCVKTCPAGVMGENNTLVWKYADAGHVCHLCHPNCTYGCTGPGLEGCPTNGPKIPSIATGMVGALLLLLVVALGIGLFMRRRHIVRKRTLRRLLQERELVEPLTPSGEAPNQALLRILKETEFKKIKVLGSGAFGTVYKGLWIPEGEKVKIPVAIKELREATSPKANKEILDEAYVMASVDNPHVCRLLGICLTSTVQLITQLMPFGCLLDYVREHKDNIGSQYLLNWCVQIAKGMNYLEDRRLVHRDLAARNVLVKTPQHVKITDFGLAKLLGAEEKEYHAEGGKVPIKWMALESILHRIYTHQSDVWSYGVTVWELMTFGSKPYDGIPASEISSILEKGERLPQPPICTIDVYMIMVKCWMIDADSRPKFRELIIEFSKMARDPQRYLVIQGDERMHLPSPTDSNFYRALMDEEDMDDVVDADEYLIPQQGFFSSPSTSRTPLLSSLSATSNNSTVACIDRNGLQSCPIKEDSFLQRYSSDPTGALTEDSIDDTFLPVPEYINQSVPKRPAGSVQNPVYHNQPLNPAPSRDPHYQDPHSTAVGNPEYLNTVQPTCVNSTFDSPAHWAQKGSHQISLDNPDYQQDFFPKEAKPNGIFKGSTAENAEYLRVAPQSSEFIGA
ENDPOINT_LABEL: IC50 (nM)

Fc1ccccc1Nc1nc(-c2ccc(Cl)cc2)nc2ccc(Br)cc12 = 70
Fc1ccc(Nc2nc(-c3ccc(Cl)cc3)nc3ccc(Br)cc23)c(F)c1 = 37.7
Fc1ccc(-c2ccc3nc(-c4ccc(Cl)cc4)nc(Nc4ccc(F)cc4F)c3c2)cc1 = 59.2
